LD50, normal human hepatocytes, 24 h, with goat anti-human IgG cross-linker values, listed per item
Target: human TRAIL-R2 on the surface of cells (Colo205, U251, Jurkat, normal human hepatocytes) (human, UniProt O14763 56-440)
Assay: cell-based or functional assay
RECORDED ENDPOINT: LD50, normal human hepatocytes, 24 h, with goat anti-human IgG cross-linker

# BINDER, ENDPOINT RESULT
data = [
    ("human anti-TRAIL-R2 monoclonal antibody KMTR1 (antibody, IgG1, V domains shown, IgG1, human kappa light chain) VH: EVQLLESGGGLVQPGRSLRLSCAASGFTFSSYAMSWVRQAPGKGLEWVSAISGSGGSRYYADSVKGRFTISRDNSKNTLYLQMNSLRAEDTAVYYCAKESSGWFGAFDYWGQGTLVTVSS VL: EIVLTQSPDFQSVTPKEKVTITCRASQSIGSSLHWYQQKPDQSPKLLIKYASQSFSGVPSRFSGSGSGTDFTLTINSLEAEDAAAYYCHQSSSLPITFGQGTRLEIK", "> 10 µg/mL"),
    ("human anti-TRAIL-R2 monoclonal antibody E-11-13 (antibody, IgG1, V domains shown, Hybridoma FERM BP-7698 / BP-7770; also called E-11-3) VH: QLQLQESGPGLVKPSETLSLTCTVSGGSIISKSSYWGWIRQPPGKGLEWIGSIYYSGSTFYNPSLKSRVTISVDTSKNQFSLKLSSVTAADTAVYYCARLTVAEFDYWGQGTLVTVSS VL: EIVLTQSPATLSLSPGERATLSCRASQSVSSFLAWYQQKPGQAPRLLIYDASNRATGIPARFSGSGSGTDFTLTISSLEPEDFAVYYCQQRSNWPLTFGPGTKVDIK", "2.8 µg/mL"),
    ("human anti-TRAIL-R2 monoclonal antibody L-30-10 (antibody, IgG1, V domains shown, Hybridoma FERM BP-7700 / BP-7769) VH: QLQLQESGPGLVKPSETLSLTCTVSGGSISSRSNYWGWIRQPPGKGLEWIGNVYYRGSTYYNSSLKSRVTISVDTSKNQFSLKLSSVTVADTAVYYCARLSVAEFDYWGQGILVTVSS VL: EIVLTQSPATLSLSPGERATLSCRASQSVSSFLAWYQQKPGQAPRLLIYDASNRATGSPARFSGSGSGTDFTLTISSLEPEDFAVYYCQQRSDWPLTFGPGTKVDIK", "24 µg/mL"),
    ("human anti-TRAIL-R2 monoclonal antibody 0304 (from the hybridoma) (antibody, IgG4, V domains shown, IgG4, human kappa light chain) VH: QVQLVQSGAEMKKPGASVKVSCKTSGYTFTNYKINWVRQAPGQGLEWMGWMNPDTDSTGYPQKFQGRVTMTRNTSISTAYMELSSLRSEDTAVYYCARSYGSGSYYRDYYYGMDVWGQGTTVTVSS VL: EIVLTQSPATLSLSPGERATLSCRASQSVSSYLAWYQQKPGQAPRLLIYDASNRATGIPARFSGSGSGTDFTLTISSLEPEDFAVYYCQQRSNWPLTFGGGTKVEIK", "0.002 µg/mL"),
]
